Test: MicroPET/CT imaging and biodistribution, HepG2 tumor model
Type: in vivo, nude mice
Conditions: both sexes, BALB/c nude, mouse, lung, iv, 5.55 MBq, total radioactivity; HepG2 (GPC3+) tumor model, 60 min, PET; read-out: Lung uptake
READOUT KIND: tissue uptake at 1 h (%ID/g)

>>> observed_result("CC(C)C[C@H](NC(=O)[C@H](CCCNC(=N)N)NC(=S)Nc1ccc(CC2CN(CC(=O)O)CCN(CC(=O)O)CCN2CC(=O)O)cc1)C(=O)N[C@@H](CC(N)=O)C(=O)N[C@H](C(=O)NCC(=O)NCC(=O)N[C@H](C(=O)N[C@@H](Cc1ccc(O)cc1)C(=O)N[C@@H](Cc1ccccc1)C(=O)N[C@@H](CC(C)C)C(=O)N[C@H](C(=O)N[C@H](C(=O)N[C@@H](CCCNC(=N)N)C(=O)N[C@@H](CCC(N)=O)C(=O)O)[C@@H](C)O)[C@@H](C)O)[C@@H](C)O)C(C)C (single isomer, unassigned) [Al[^18F]F-GP2076]")
0.78

----------
Assay: MicroPET/CT imaging and biodistribution, HepG2 tumor model
Type: in vivo, nude mice
Conditions: both sexes, BALB/c nude, mouse, HepG2 tumor / muscle, iv, 5.55 MBq, total radioactivity; HepG2 (GPC3+) tumor bearing mice, 30 min; read-out: Tumor-to-muscle (T/M) uptake ratio
READOUT KIND: tissue to tissue ratio at 0.5 h

>>> observed_result("CC(C)C[C@H](NC(=O)[C@H](CCCNC(=N)N)NC(=S)Nc1ccc(CC2CN(CC(=O)O)CCN(CC(=O)O)CCN2CC(=O)O)cc1)C(=O)N[C@@H](CC(N)=O)C(=O)N[C@H](C(=O)NCC(=O)NCC(=O)N[C@H](C(=O)N[C@@H](Cc1ccc(O)cc1)C(=O)N[C@@H](Cc1ccccc1)C(=O)N[C@@H](CC(C)C)C(=O)N[C@H](C(=O)N[C@H](C(=O)N[C@@H](CCCNC(=N)N)C(=O)N[C@@H](CCC(N)=O)C(=O)O)[C@@H](C)O)[C@@H](C)O)[C@@H](C)O)C(C)C (single isomer, unassigned) [Al[^18F]F-GP2076]")
5.56

----------
Assay: MicroPET/CT imaging and biodistribution, HepG2 tumor model
Format: in vivo, nude mice
Conditions: both sexes, BALB/c nude, mouse, heart, iv, 5.55 MBq, total radioactivity; HepG2 (GPC3+) tumor model, 60 min, PET; read-out: Heart uptake
READOUT KIND: tissue uptake at 1 h (%ID/g)

>>> observed_result("CC(C)C[C@H](NC(=O)[C@H](CCCNC(=N)N)NC(=S)Nc1ccc(CC2CN(CC(=O)O)CCN(CC(=O)O)CCN2CC(=O)O)cc1)C(=O)N[C@@H](CC(N)=O)C(=O)N[C@H](C(=O)NCC(=O)NCC(=O)N[C@H](C(=O)N[C@@H](Cc1ccc(O)cc1)C(=O)N[C@@H](Cc1ccccc1)C(=O)N[C@@H](CC(C)C)C(=O)N[C@H](C(=O)N[C@H](C(=O)N[C@@H](CCCNC(=N)N)C(=O)N[C@@H](CCC(N)=O)C(=O)O)[C@@H](C)O)[C@@H](C)O)[C@@H](C)O)C(C)C (single isomer, unassigned) [Al[^18F]F-GP2076]")
1.05

----------
Experiment: MicroPET/CT imaging and biodistribution, HepG2 tumor model
Format: in vivo, nude mice
Details: both sexes, BALB/c nude, mouse, intestine, iv, 5.55 MBq, total radioactivity; HepG2 (GPC3+) tumor model, 30 min, PET; read-out: Intestinal uptake
READOUT KIND: tissue uptake at 0.5 h (%ID/g)

>>> observed_result("CC(C)C[C@H](NC(=O)[C@H](CCCNC(=N)N)NC(=S)Nc1ccc(CC2CN(CC(=O)O)CCN(CC(=O)O)CCN2CC(=O)O)cc1)C(=O)N[C@@H](CC(N)=O)C(=O)N[C@H](C(=O)NCC(=O)NCC(=O)N[C@H](C(=O)N[C@@H](Cc1ccc(O)cc1)C(=O)N[C@@H](Cc1ccccc1)C(=O)N[C@@H](CC(C)C)C(=O)N[C@H](C(=O)N[C@H](C(=O)N[C@@H](CCCNC(=N)N)C(=O)N[C@@H](CCC(N)=O)C(=O)O)[C@@H](C)O)[C@@H](C)O)[C@@H](C)O)C(C)C (single isomer, unassigned) [Al[^18F]F-GP2076]")
3.03

The measurements presented in this section are drawn from patent US20210347709A1.
